What inhibition in vivo was measured for each of the following?
# Test system: Rattus norvegicus
# Protocol Text: Anti-inflammatory activity in Rattus norvegicus Wistar (rat) assessed as inhibition of carrageenan-induced paw edema at dose molecularly equivalent to 20 mg/kg of ibuprofen administered as po after 3 hr relative to ibuprofen
# Type: functional
Please format your answer as a value with the unit trailing.

>>> assay_value("COc1ccc(N2COc3ccc(C(=O)/C=C/c4ccccc4O)cc3C2)cc1")
"55.7%"
>>> assay_value("COc1cc(/C=C/C(=O)c2ccc3c(c2)CN(c2ccc(C)cc2)CO3)cc(OC)c1OC")
"56.5%"
>>> assay_value("COc1ccc(N2COc3ccc(C(=O)/C=C/c4ccccc4Cl)cc3C2)cc1")
"63.4%"
>>> assay_value("COc1ccc(N2COc3ccc(C(=O)/C=C/c4ccc(Cl)cc4)cc3C2)cc1")
"67.4%"
>>> assay_value("COc1ccc(N2COc3ccc(C(=O)/C=C/c4cc(OC)c(OC)c(OC)c4)cc3C2)cc1")
"62.2%"
>>> assay_value("Cc1ccc(N2COc3ccc(C(=O)/C=C/c4ccc(Cl)cc4Cl)cc3C2)cc1")
"71.9%"

For every listed record, write down its inhibition in vivo.
1. COc1ccc(N2COc3ccc(C(=O)/C=C/c4ccc(Cl)cc4Cl)cc3C2)cc1
2. Cc1ccc(N2COc3ccc(C(=O)/C=C/c4ccc(Cl)cc4)cc3C2)cc1
3. COc1ccc(/C=C/C(=O)c2ccc3c(c2)CN(c2ccc(OC)cc2)CO3)cc1
4. Cc1ccc(N2COc3ccc(C(=O)/C=C/c4ccccc4O)cc3C2)cc1
5. COc1ccc(/C=C/C(=O)c2ccc3c(c2)CN(c2ccc(C)cc2)CO3)cc1

Resp:
["74.9%", "63.4%", "61.2%", "51%", "70.4%"]

Req: Fill blank: measured inhibition in vivo of the compound Cc1ccc(N2COc3ccc(C(=O)/C=C/c4ccccc4Cl)cc3C2)cc1 is ____.
Resp: 60.4%

====

What UI was measured for each of the following?
# Tested on: Rattus norvegicus
# Protocol Text: Gastrointestinal toxicity in Rattus norvegicus Wistar (rat) assessed as ulcer index at dose molecularly equivalent to 60 mg/kg of ibuprofen administered as po
# Type: organism-based
# Parameters: dose 60 mg/kg, route oral
# Particulars: in vivo
Give bare numbers.

Below: 2 compounds and their reported UI.
>>> assay_value("COc1ccc(/C=C/C(=O)c2ccc3c(c2)CN(c2ccc(C)cc2)CO3)cc1")
0.17
>>> assay_value("COc1ccc(N2COc3ccc(C(=O)/C=C/c4ccc(Cl)cc4)cc3C2)cc1")
0.25

For every listed record, write down its UI.
1. Cc1ccc(N2COc3ccc(C(=O)/C=C/c4ccc(Cl)cc4Cl)cc3C2)cc1
2. COc1ccc(N2COc3ccc(C(=O)/C=C/c4ccc(Cl)cc4Cl)cc3C2)cc1

Resp:
1: 0.17; 2: 0.08
